FYI, the data here is from patent US6277882A.

# Test: in vivo
# Condition Set: rat, in vivo, po, oral administration, female
# Protocol: Before the clinical trial, the acute toxicity of methyl hydrogen fumarate was tested by oral administration to rats. Acute toxicity on rats (oral administration)
Where a name gives a salt, the structure may show the parent alone.
Quantity: LD50 (mg/kg)

- Molecule: "COC(=O)/C=C/C(=O)O [Methyl hydrogen fumarate, methyl hydrogen fumarate]"
  Endpoint Value: 1780

====

# Test: Pharmaceutical equivalency: comparison of pharmacokinetic data (methyl hydrogen fumarate level)
# Condition Set: rat, in vivo, 100 mg/kg, dosage 100 mg/kg body-wt., female
Where a name gives a salt, the structure may show the parent alone.
Quantity: Cmax (µg/mL)

- Molecule: "COC(=O)/C=C/C(=O)O.[Ca] [Methyl hydrogen fumarate calcium salt]"
  Endpoint Value: 107
- Molecule: "COC(=O)/C=C/C(=O)O [Methyl hydrogen fumarate, methyl hydrogen fumarate]"
  Endpoint Value: 84.8
